This section presents molecules with their documented melting point values.

Guide cases for melting point, answers given:
| Molecule | Property measured | Observed |
| --- | --- | --- |
| c1n[nH]nc1C12CCCN(CC1)C2 (stereo unspecified) | melting point | 70 to 75 °C |
| Fc1cnc2[nH]ccc2c1 | melting point | 110 °C |
| Cc1cc(I)ccc1N=C=S | melting point | 51 to 53 °C |
| CCc1c(-c2ccccc2)nc(C(C)C)c(C#CI)c1-c1ccc(F)cc1 | melting point | 117 to 119 °C |
| C[C@@H]1C[C@H](CC2CCCCC2)C(=O)O1 (relative stereo) | melting point | 60 to 62 °C |
| CCOc1ccc(-c2ccc(O)c(C=O)c2)cc1 | melting point | 94 to 95 °C |

*Q* Quick one: melting point of `CCOC(=O)c1cccc(Cc2c(C(=O)OCC)n(Cc3cc4c(cc3CC)OCO4)c3ccc(OCOC)cc3c2=O)c1` ?
*A* 89 to 96 °C

*Q* Quick one: melting point of `Cn1c(=O)ccc2cnc(N3CCC[C@H]3CO)nc21` ?
*A* 143 to 144 °C

*Q* Quick one: melting point of `CC(C)(C)OC(=O)N1CCN(c2ccc(N=C(N)c3cccs3)cc2)CC1` ?
*A* 164 °C

*Q* Quick one: melting point of `CCOC(=O)[C@H]1O[C@@H]1C(=O)N[C@H](CNC(=O)c1ccccc1)CC(C)C` ?
*A* 126 to 129 °C

*Q* Quick one: melting point of `CCOC(=O)C(C(=O)OCC)=C1CN(C)C(=O)c2ccccc2N1` ?
*A* 139 °C
